# Tgt: α1G T-type calcium channels (Homo sapiens, UniProt O43497)
# Construct: host or cells: HEK293
# Sequence (O43497 whole entry): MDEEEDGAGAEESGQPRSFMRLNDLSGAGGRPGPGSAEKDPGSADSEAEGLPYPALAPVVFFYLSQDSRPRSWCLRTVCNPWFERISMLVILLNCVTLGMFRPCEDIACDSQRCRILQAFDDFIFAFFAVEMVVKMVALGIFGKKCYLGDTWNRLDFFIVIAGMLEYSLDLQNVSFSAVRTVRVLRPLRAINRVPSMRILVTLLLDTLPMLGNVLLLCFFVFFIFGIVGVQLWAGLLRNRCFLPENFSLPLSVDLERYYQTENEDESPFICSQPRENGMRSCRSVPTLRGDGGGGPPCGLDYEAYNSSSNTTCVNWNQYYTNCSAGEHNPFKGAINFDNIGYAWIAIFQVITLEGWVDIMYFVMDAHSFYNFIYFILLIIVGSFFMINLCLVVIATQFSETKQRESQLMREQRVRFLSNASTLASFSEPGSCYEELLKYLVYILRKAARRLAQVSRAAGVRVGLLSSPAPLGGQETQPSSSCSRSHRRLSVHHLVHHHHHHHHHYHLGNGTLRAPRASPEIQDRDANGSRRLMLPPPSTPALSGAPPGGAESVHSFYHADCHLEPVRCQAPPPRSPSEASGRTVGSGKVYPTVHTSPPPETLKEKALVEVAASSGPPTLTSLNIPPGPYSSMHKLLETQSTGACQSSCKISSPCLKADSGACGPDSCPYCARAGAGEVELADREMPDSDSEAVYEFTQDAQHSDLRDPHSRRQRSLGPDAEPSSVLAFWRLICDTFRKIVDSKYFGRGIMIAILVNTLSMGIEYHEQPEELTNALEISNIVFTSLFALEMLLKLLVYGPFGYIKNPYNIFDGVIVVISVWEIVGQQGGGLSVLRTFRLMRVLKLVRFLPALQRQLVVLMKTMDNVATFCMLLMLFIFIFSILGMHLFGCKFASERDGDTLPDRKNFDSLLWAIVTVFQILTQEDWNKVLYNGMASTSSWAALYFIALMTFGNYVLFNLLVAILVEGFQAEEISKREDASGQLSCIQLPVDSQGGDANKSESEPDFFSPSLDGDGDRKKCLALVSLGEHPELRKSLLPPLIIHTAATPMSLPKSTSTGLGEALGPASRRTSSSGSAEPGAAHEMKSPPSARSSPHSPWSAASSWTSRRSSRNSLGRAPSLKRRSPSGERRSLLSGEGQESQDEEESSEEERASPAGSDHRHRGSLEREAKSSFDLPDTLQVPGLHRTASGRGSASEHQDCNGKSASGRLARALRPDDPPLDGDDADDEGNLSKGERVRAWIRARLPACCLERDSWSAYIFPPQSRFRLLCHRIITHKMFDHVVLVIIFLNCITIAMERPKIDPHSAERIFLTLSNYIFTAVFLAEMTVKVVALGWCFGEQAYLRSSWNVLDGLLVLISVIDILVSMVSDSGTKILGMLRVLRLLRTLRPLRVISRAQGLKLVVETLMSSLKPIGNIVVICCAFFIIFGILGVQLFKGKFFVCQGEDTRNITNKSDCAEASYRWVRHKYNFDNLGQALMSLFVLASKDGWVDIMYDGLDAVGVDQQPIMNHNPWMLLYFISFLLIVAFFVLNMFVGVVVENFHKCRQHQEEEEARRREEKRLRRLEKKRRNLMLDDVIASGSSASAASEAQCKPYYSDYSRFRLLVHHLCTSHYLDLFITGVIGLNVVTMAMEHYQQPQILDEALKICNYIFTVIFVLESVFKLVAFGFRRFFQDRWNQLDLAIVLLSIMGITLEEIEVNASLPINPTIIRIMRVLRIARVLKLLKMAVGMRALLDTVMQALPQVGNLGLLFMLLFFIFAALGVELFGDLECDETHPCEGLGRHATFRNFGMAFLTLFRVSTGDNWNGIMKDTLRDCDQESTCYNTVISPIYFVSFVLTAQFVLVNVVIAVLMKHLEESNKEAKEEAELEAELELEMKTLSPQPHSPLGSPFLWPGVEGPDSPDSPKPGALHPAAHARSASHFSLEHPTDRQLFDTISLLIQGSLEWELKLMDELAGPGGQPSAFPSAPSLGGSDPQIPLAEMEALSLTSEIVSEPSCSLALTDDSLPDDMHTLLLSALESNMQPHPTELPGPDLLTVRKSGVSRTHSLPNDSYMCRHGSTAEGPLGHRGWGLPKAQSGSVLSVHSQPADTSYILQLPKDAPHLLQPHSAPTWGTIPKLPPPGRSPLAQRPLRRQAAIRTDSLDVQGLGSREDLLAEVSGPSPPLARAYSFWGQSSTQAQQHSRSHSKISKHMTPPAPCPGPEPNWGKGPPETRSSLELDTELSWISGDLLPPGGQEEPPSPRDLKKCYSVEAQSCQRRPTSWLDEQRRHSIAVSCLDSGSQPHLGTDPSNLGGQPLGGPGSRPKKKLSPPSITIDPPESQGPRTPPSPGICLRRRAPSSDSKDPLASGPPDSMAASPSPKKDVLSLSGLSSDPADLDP
# Protocol: T-type calcium channel activity using electrophysiological whole-cell patch-clamp technique
# Assay type: cell-based
# Condition Notes: percent inhibition of inward peak currents, HEK293 cells expressing α1G, head prints 100 μM
Measurement Label: inhibition at 100 µM (%)

[
  {
    "Smiles String": "Cc1cccc(N2CCN(C(=O)CCn3cnc(-c4ccccc4)c3)CC2)c1C",
    "inhibition at 100 µM / %": 64.7
  },
  {
    "Smiles String": "O=C(CCn1ccnc1-c1ccccc1)NCCN1CCN(c2ccc(F)cc2)CC1",
    "inhibition at 100 µM / %": 37.6
  },
  {
    "Smiles String": "O=C(CCn1cnc(-c2ccccc2)c1)NCCN1CCN(C(c2ccccc2)c2ccccc2)CC1",
    "inhibition at 100 µM / %": 51.9
  },
  {
    "Smiles String": "O=C(CCn1ccnc1-c1ccccc1)NCCN1CCN(C(c2ccccc2)c2ccccc2)CC1",
    "inhibition at 100 µM / %": 29.1
  }
]

1. O=C(CCn1cnc(-c2ccccc2)c1)N1CCN(Cc2ccc(Cl)cc2)CC1
2. O=C(CCn1cnc(-c2ccccc2)c1)N1CCN(c2ccccc2F)CC1
3. O=C(CCn1ccnc1-c1ccccc1)N1CCN(Cc2ccc(Cl)c(Cl)c2)CC1
Write the entries in order, lowest recorded inhibition at 100 µM first. Give the labels in the order requested.
2, 3, 1
